Target: human TLR3 extracellular domain (amino acids 1-703) with C-terminal poly-histidine tag (human)
Test: Biacore (data not shown)
RESULT_TYPE: Kd

Dear colleague, could you send me Kd for each of the items below? Thanks.
1. mAb 5 (antibody, V domains shown) VH: QVELQQSGPGLVKPSQTLSLTCAISGDSVSTRSAAWGWIRQSPGRGLEWLGRIYMRSKWYNDYAVSVKSRITINPDTSKNQFSLQLNSVTPEDTAVYYCARHTYPYLSFDVWGQGTLVTVSS VL: DIELTQPPSVSVAPGQTARISCSGDALGGYFVSWYQQKPGQAPVLVIYDDDNRPSGIPERFSGSNSGNTATLTISGTQAEDEADYYCQSYDEDSATVFGGGTKLTVL
2. mAb 6 (antibody, V domains shown) VH: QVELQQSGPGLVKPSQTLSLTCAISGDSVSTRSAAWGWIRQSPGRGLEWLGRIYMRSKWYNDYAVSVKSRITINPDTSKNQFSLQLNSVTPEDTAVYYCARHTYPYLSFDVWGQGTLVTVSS VL: DIELTQPPSVSVAPGQTARISCSGDALGGYFVSWYQQKPGQAPVLVIYDDDNRPSGIPERFSGSNSGNTATLTISGTQAEDEADYYCGSYDSNSLTVFGGGTKLTVL
3. mAb 2 (antibody, V domains shown) VH: QVELVQSGAEVKKPGESLKISCKGSGYSFNNYWIGWVRQMPGKGLEWMGIIDPQDSWTNYAPSFQGQVTISADKSISTAYLQWSSLKASDTAMYYCARNIYEFDYWGQGTLVTVSS VL: DIQMTQSPSSLSASVGDRVTITCRASQGISSWLNWYQQKPGKAPKLLIYGASNLQSGVPSRFSGSGSGTDFTLTISSLQPEDFAVYYCQQYDDFSITFGQGTKVEIK

< 0.01 µM
< 0.01 µM
< 0.01 µM
